test system: PC-3 (prostate carcinoma); assay: MTT assay, cytotoxicity/growth inhibition; assay type: cell-based; conditions: Homo sapiens, 48 h, read-out: Cytotoxic Activity (% Growth Inhibition)
As shown below, each of these compounds has a reported inhibition at 20 µM value.
measurement-label: inhibition at 20 µM (%)

{"columns": ["compound", "measurement-label", "measured-result"],
 "data": [
  ["CCCCCCCCCC(=O)OCC1=CCC2[C@](C)(CO)[C@H](O)CC[C@@]2(C)[C@@H]1/C=C/C1=CCOC1=O (stereo partly drawn) [Compound 9x]", "inhibition at 20 µM", 24],
  ["C[C@@]12COC(c3ccccc3)O[C@@H]1CC[C@]1(C)C2CC=C(COC(=O)c2cccc(F)c2)[C@H]1/C=C/C1=CCOC1=O (stereo partly drawn) [Compound 8c]", "inhibition at 20 µM", 0],
  ["C=C1CC[C@@H]2[C@](C)(CO)[C@H](O)CC[C@@]2(C)[C@@H]1C/C=C1/C(=O)OC[C@H]1O [Compound 1, Andrographolide, reference compound]", "inhibition at 20 µM", 0]
]}
